Source listed as the RNAGym collection of RNA variant scans (doi:10.7554/elife.90254).

B1: LINE1-full (parent)
chain: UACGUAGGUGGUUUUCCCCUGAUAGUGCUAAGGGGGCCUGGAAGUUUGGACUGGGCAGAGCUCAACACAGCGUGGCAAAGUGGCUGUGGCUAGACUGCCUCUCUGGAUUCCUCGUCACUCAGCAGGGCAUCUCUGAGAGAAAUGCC

variants of: B1; test: self-cleavage, relative activity (ratio to wild type); higher = more cleavage; in vitro, sequencing; the parent is a self-cleaving ribozyme
RECORDED_ENDPOINT: self-cleavage

>>> df
      variant  recorded_endpoint  experimental_value
0   G8A U115C      self-cleavage                1.33
1   C37A A94U      self-cleavage                0.23
2   U15A U62A      self-cleavage                0.04
3  A59U U112A      self-cleavage                0.83
4   A2G A138G      self-cleavage                0.98
5   U14G A50U      self-cleavage                1.14
6   U39C G72A      self-cleavage                1.07
